Molecular target: human IGF-1R (soluble, analyte in SPR) (human) (UniProt P08069)
Assay: SPR (ProteOn XPR36), 25 C, Fab captured by anti-Fab; ratio against parental Ak18
Quantity name: x-fold increase of binding affinity (=KD (unmodified AK18)/KD (CDR-modified)) (fold)
Numeric answer only, unit fold assumed.

Guide cases for x-fold increase of binding affinity (=KD (unmodified AK18)/KD (CDR-modified)), answers given:
Binder	Obs value
<IGF-1R> L39D7 Fab fragment (affinity-matured <IGF-1R> HUMAB-Clone 18) (Fab, V domains shown) VH: QVELVESGGGVVQPGRSQRLSCAASGFTFSSYGMHWVRQAPGKGLEWVAIIWFDGSSTYYADSVRGRFTISRDNSKNTLYLQMNSLRAEDTAVYFCARELGRRYFDLWGRGTLVSVSS VL: EIVLTQSPATLSLSPGERATLSCRASQSVSKQLAWYQQKPGQAPRLLIYNASKRATGIPARFSGSGSGTDFTLTISSLEPEDFAVYYCQQRSKYPPWTFGQGTKVESK	23.8
<IGF-1R> L31D11 Fab fragment (affinity-matured <IGF-1R> HUMAB-Clone 18) (Fab, V domains shown) VH: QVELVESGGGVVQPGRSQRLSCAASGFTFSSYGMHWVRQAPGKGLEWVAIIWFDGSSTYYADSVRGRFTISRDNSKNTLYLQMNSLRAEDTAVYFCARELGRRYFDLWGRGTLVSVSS VL: EIVLTQSPATLSLSPGERATLSCRASRSVYSSLAWYQQKPGQAPRLLIYKASSRATGIPARFSGSGSGTDFTLTISSLEPEDFAVYYCQQRSKWPPWTFGQGTKVESK	68
<IGF-1R> L31D7 Fab fragment (affinity-matured <IGF-1R> HUMAB-Clone 18) (Fab, V domains shown) VH: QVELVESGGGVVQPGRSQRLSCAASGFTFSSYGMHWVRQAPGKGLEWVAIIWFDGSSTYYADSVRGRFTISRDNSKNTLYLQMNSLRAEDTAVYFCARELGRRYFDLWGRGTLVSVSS VL: EIVLTQSPATLSLSPGERATLSCRASQSVIQSLAWYQQKPGQAPRLLIYRASKRATGIPARFSGSGSGTDFTLTISSLEPEDFAVYYCQQRSKWPPWTFGQGTKVESK	17.8

Which x-fold increase of binding affinity (=KD (unmodified AK18)/KD (CDR-modified)) reading was recorded for the binder <IGF-1R> L37F7 Fab fragment (affinity-matured <IGF-1R> HUMAB-Clone 18) (Fab, V domains shown) VH: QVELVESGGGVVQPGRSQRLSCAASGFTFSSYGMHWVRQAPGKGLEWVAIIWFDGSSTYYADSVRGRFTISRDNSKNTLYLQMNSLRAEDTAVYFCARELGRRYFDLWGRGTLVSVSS VL: EIVLTQSPATLSLSPGERATLSCRASQSVSSQLAWYQQKPGQAPRLLIYKATNRATGIPARFSGSGSGTDFTLTISSLEPEDFAVYYCQQRSKYPPWTFGQGTKVESK ?
17.9

Which x-fold increase of binding affinity (=KD (unmodified AK18)/KD (CDR-modified)) reading was recorded for the binder <IGF-1R> F13B5 Fab fragment (affinity-matured <IGF-1R> HUMAB-Clone 18) (Fab, V domains shown) VH: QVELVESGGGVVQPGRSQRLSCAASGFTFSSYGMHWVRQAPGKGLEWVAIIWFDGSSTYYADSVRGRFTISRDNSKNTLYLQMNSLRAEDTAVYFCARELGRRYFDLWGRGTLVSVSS VL: EIVLTQSPATLSLSPGERATLSCRASQSVSSYLAWYQQKPGQAPRLLIYQASKRATGIPARFSGSGSGTDFTLTISSLEPEDFAVYYCQQRSKYPPWTFGQGTKVESK ?
12.4
